FYI, the data here is from patent US5329012A.

- System: lymphocytic leukemia P-388
- ASSAY_TEXT: P-388 lymphocytic leukemia test in mice (NCI Protocol 1.200)
- Format: in vivo, CDF1 female mice
- TEST_CONDITIONS: 400 mg/kg/inj, daily for 5 days
Can you tell me BWD (body weight difference vs control) for the items I'm about to list?
Give bare numbers, in g.

# MOLECULE, SYSTEM_TESTED, BWD (body weight difference vs control), g
records = [
    ("CSc1nc(COC(=O)NC(C)C)c(COC(=O)NC(C)C)n1C", "lymphocytic leukemia P-388", -3.4),
]

Give BWD (body weight difference vs control) for all molecules that follow.
1. COc1nc(COC(=O)NC(C)C)c(COC(=O)NC(C)C)n1C
2. CNC(=O)OCc1nc(SC)n(Cc2ccccc2)c1COC(=O)NC
3. CC(C)NC(=O)OCc1ncn(-c2ccccc2)c1COC(=O)NC(C)C [B, reference compound]
4. CSc1nc(COC(=O)NC(C)C)c(COC(=O)NC(C)C)n1Cc1ccccc1
5. CSc1nc(COC(=O)NC(C)C)c(COC(=O)NC(C)C)n1-c1ccccc1
6. CNC(=O)OCc1nc(SC)n(-c2ccccc2)c1COC(=O)NC

1. -4.2
2. -1.2
3. -2.3
4. -3.2
5. -4.8
6. -5.2

====

Can you tell me response vs control in vivo at 50 mg/kg for the items I'm about to list?
- System: lymphocytic leukemia P-388
- ASSAY_TEXT: P-388 lymphocytic leukemia test in mice (NCI Protocol 1.200)
- Assay type: in vivo, CDF1 female mice
- TEST_CONDITIONS: Mus musculus, P388, 120 h, read-out: % T/C (mean survival time)
One number for each entry, in %.

Check out these entries, answers already filled in.
# COMPOUND, response vs control in vivo at 50 mg/kg (%)
rows = [
    ("CNC(=O)OCc1ncn(-c2ccccc2)c1COC(=O)NC [A, reference compound]", 101),
    ("CNC(=O)OCc1nc(SC)n(Cc2ccccc2)c1COC(=O)NC [E]", 116),
    ("CNC(=O)OCc1nc(SC)n(-c2ccccc2)c1COC(=O)NC [C]", 141),
    ("CNC(=O)OCc1nc(SC)n(C)c1COC(=O)NC [H]", 184),
]

Reported response vs control in vivo at 50 mg/kg for CNC(=O)OCc1nc(-c2ccccc2)n(C)c1COC(=O)NC [G] : what is it?
112

====

- Test system: lymphocytic leukemia P-388
- ASSAY_TEXT: P-388 lymphocytic leukemia test in mice (NCI Protocol 1.200)
- Type: in vivo, CDF1 female mice
- TEST_CONDITIONS: Mus musculus, P388, 120 h, read-out: % T/C (mean survival time)
Can you tell me response vs control in vivo at 200 mg/kg for the items I'm about to list?

# COMPOUND, MEASURED_VALUE
data = [
    ("CNC(=O)OCc1nc(SC)n(Cc2ccccc2)c1COC(=O)NC", "129%"),
]

Give response vs control in vivo at 200 mg/kg for all compounds that follow.
1. CNC(=O)OCc1nc(SC)n(-c2ccccc2)c1COC(=O)NC
2. CNC(=O)OCc1nc(-c2ccccc2)n(C)c1COC(=O)NC
3. CNC(=O)OCc1ncn(-c2ccccc2)c1COC(=O)NC [A, reference compound]

156%
119%
99%

====

- System: lymphocytic leukemia P-388
- ASSAY_TEXT: P-388 lymphocytic leukemia test in mice (NCI Protocol 1.200)
- Assay type: in vivo, CDF1 female mice
- TEST_CONDITIONS: 25 mg/kg/inj, daily for 5 days
y means recorded KE (log tumor cell population end vs before treatment) is -1 or above; n means it is below -1.

# COMPOUND, CLASS_NAME
measured = [
    ("CNC(=O)OCc1nc(-c2ccccc2)n(C)c1COC(=O)NC [G]", "n"),
    ("CNC(=O)OCc1nc(SC)n(C)c1COC(=O)NC [H]", "y"),
    ("CC(C)NC(=O)OCc1ncn(-c2ccccc2)c1COC(=O)NC(C)C [B, reference compound]", "n"),
    ("CSc1nc(COC(=O)NC(C)C)c(COC(=O)NC(C)C)n1C [I]", "y"),
]

Hi, just wondering whether COc1nc(COC(=O)NC(C)C)c(COC(=O)NC(C)C)n1C [J] shows KE (log tumor cell population end vs before treatment) of -1 or higher.
y

Hi, just wondering whether CSc1nc(COC(=O)NC(C)C)c(COC(=O)NC(C)C)n1Cc1ccccc1 [F] shows KE (log tumor cell population end vs before treatment) of -1 or higher.
n

Hi, just wondering whether CNC(=O)OCc1ncn(-c2ccccc2)c1COC(=O)NC [A, reference compound] shows KE (log tumor cell population end vs before treatment) of -1 or higher.
n

====

- System: lymphocytic leukemia P-388
- ASSAY_TEXT: P-388 lymphocytic leukemia test in mice (NCI Protocol 1.200)
- Format: in vivo, CDF1 female mice
- TEST_CONDITIONS: 50 mg/kg/inj, daily for 5 days
Can you tell me KE (log tumor cell population end vs before treatment) for the items I'm about to list?

Check out these entries, answers already filled in.
# MOLECULE, MEASURED_VALUE
records = [
    ("CNC(=O)OCc1nc(SC)n(C)c1COC(=O)NC", 4.21),
    ("CSc1nc(COC(=O)NC(C)C)c(COC(=O)NC(C)C)n1-c1ccccc1", -1.64),
    ("CNC(=O)OCc1ncn(-c2ccccc2)c1COC(=O)NC [A, reference compound]", -1.52),
]

Give KE (log tumor cell population end vs before treatment) for all molecules that follow.
1. CNC(=O)OCc1nc(-c2ccccc2)n(C)c1COC(=O)NC
2. CC(C)NC(=O)OCc1ncn(-c2ccccc2)c1COC(=O)NC(C)C [B, reference compound]
3. CSc1nc(COC(=O)NC(C)C)c(COC(=O)NC(C)C)n1C
4. CNC(=O)OCc1nc(SC)n(-c2ccccc2)c1COC(=O)NC
5. COc1nc(COC(=O)NC(C)C)c(COC(=O)NC(C)C)n1C
6. CNC(=O)OCc1nc(SC)n(Cc2ccccc2)c1COC(=O)NC
7. CSc1nc(COC(=O)NC(C)C)c(COC(=O)NC(C)C)n1Cc1ccccc1

1: -1.38; 2: -1.62; 3: -0.56; 4: 0.60; 5: 0.54; 6: -1.19; 7: -0.42

====

- Test system: lymphocytic leukemia P-388
- ASSAY_TEXT: P-388 lymphocytic leukemia test in mice (NCI Protocol 1.200)
- Assay type: in vivo, CDF1 female mice
- TEST_CONDITIONS: 25 mg/kg/inj, daily for 5 days
Can you tell me BWD (body weight difference vs control) for the items I'm about to list?
Give the value; after it, write the unit.

# SMILES_STRUCTURE, READOUT_LABEL, MEASURED_VALUE
measured = [
    ("COc1nc(COC(=O)NC(C)C)c(COC(=O)NC(C)C)n1C", "BWD (body weight difference vs control)", "-0.1 g"),
    ("CSc1nc(COC(=O)NC(C)C)c(COC(=O)NC(C)C)n1C", "BWD (body weight difference vs control)", "0.4 g"),
]

Let's switch to this compound now.
Query BWD (body weight difference vs control) on lymphocytic leukemia P-388 for CSc1nc(COC(=O)NC(C)C)c(COC(=O)NC(C)C)n1Cc1ccccc1
-1.5 g

====

- System: lymphocytic leukemia P-388
- ASSAY_TEXT: P-388 lymphocytic leukemia test in mice (NCI Protocol 1.200)
- Format: in vivo, CDF1 female mice
- TEST_CONDITIONS: 100 mg/kg/inj, daily for 5 days
- Experimental: Various bis(acyloxymethyl)imidazole derivatives prepared in accord with Examples I-XVIII and designated Samples A-J, were tested for anti-tumor activity in vivo using the lymphocytic leukemia P-388 test procedure in mice with Samples A and B representing controls. The test system was that employed by the National Cancer Institute (NCI) for the preliminary screening of anti-tumor agents, according to Protocol 1.200 (Cancer Chemo. Reports Part 3, Vol. 3, No. 2, page 9; 1972). […]
hey, just use Condition met if measured BWD (body weight difference vs control) is less than -0.3 g, otherwise Condition not met

# COMPOUND, CLASS_NAME
measured = [
    ("CNC(=O)OCc1nc(SC)n(Cc2ccccc2)c1COC(=O)NC", "Condition not met"),
    ("COc1nc(COC(=O)NC(C)C)c(COC(=O)NC(C)C)n1C", "Condition met"),
]

Is BWD (body weight difference vs control) of CNC(=O)OCc1nc(-c2ccccc2)n(C)c1COC(=O)NC strictly below -0.3 g?
Condition met

Is BWD (body weight difference vs control) of CC(C)NC(=O)OCc1ncn(-c2ccccc2)c1COC(=O)NC(C)C [B, reference compound] strictly below -0.3 g?
Condition not met

Is BWD (body weight difference vs control) of CNC(=O)OCc1nc(SC)n(-c2ccccc2)c1COC(=O)NC strictly below -0.3 g?
Condition met
